meta.source: patent US20150196651A1

# Target Or System: T1, rat PrRP receptor in RC-4B/C cells (rat, UniProt Q64121 1-370)
# T1 construct: whole, on cells; endogenous receptor of RC-4B/C cells (ATCC); also called rat receptor; GPR10 receptor expressed in rat hypophyseal cells
# T1 sequence (looked up): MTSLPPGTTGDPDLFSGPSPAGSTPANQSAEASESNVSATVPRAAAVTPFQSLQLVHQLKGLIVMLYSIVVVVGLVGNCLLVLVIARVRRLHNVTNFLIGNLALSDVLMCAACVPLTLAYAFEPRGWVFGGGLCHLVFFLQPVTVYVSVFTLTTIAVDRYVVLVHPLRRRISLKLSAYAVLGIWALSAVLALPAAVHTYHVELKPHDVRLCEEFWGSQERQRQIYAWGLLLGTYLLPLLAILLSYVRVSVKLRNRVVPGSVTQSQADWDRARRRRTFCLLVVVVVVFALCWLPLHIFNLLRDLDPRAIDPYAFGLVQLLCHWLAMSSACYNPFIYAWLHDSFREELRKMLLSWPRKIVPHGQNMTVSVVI
# Assay Protocol: competition with 125I-rat PrRP31, RC-4B/C cells
Square brackets hold non-standard residues; d marks the D form. Ends that are not written are not given here. * marks the point of attachment. Phe(F5) = N[C@@H](Cc1c(F)c(F)c(F)c(F)c1F)C(=O)O; 1Nal = N[C@@H](Cc1cccc2ccccc12)C(=O)O; Myristoyl = CCCCCCCCCCCCCC(=O)*; Decanoyl = CCCCCCCCCC(=O)*; Nle = CCCC[C@H](N)C(=O)O; Octanoyl = CCCCCCCC(=O)*
Exercise: state measured Ki for each of the binders provided.
Reply numerically in µM, unit not repeated.

Request: Annotate the binder TPDINPAWYTGRGARPFGRF-NH2 [analog no. 31] with its measured Ki.
Result: 0.655

Request: Input SRAHQHS[Nle]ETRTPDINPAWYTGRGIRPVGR[Phe(F5)]-NH2 [analog no. 21] , output reported Ki.
Result: 0.00969

Request: Assign Ki to the following record: Decanoyl-SRAHQHS[Nle]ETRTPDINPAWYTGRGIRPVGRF-NH2 [analog no. 5]
Result: 0.00065

Request: Return the recorded Ki value; entry: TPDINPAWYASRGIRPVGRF-NH2 (synthetic peptide) [Human PrRP20]
Result: 0.00178

Request: Fill in Ki for record Octanoyl-SRAHQHS[Nle]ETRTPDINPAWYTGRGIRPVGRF-NH2 [analog no. 4]
Result: 0.00098

Request: Report measured Ki; entry is SHQRPADTHWYPRG[Nle]FPTIGRITARNGEVSR (scrambled peptide; also called 19 scram) [analog no. 19]
Result: 1320

Request: Query Ki for Myristoyl-SRAHQHS[Nle]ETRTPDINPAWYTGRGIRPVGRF-NH2 [analog no. 7]
Result: 0.00069

Request: Could you please provide reported Ki for TPDINPAWYTGRGIRPVGRF-NH2 (synthetic peptide) [Rat PrRP20] ? Thanks!
Result: 0.00344

Request: Give Ki for SRAHQHS[Nle]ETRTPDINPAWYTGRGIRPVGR[1Nal]-NH2 [analog no. 10]
Result: 0.102

Request: Respond only with Ki recorded for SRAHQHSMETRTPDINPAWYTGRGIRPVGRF-NH2 (synthetic peptide) [Rat PrRP31]
Result: 0.00493
